target: HLA-A*02:19; experiment: IEDB peptide-MHC binding, purified MHC/direct/fluorescence; filed as Kd, often an IC50 or EC50 that approximates it; bounds were set here for any values at or beyond the usual limits of such assays; settings: source organism: Entamoeba histolytica HM-1:IMSS
measured_quantity: Kd

So what's the measured Kd for this one? `DSFAKQPQW` ≥ 20 µM

====

molecular target: HLA-B*27:03; assay: IEDB peptide-MHC binding, purified MHC/competitive/fluorescence; filed as Kd, often an IC50 or EC50 that approximates it; bounds were set here for any values at or beyond the usual limits of such assays; settings: source organism: Orthohantavirus tulaense
measured_quantity: Kd

So what's the measured Kd for this one? `ILMARYMSK` ≥ 20 µM

Measured values drawn from the Immune Epitope Database (IEDB) for this set.
